meta.source: patent US10092648B2

- Test system: male C57BL mice
- Assay Name: In vivo stimulation of intestinal growth, 200 nmol/kg (Example 11)
- Condition Set: colon weight relative to body weight; relative to ZP1559
Colon-BW, compared to 1559 in %: recorded values
Property Name: Colon-BW, compared to 1559 in % (%)

[[record]]
substance = "H-HGEGSFSDELATILEALAAADFIAWLISTKITDKKKKKK-NH2 [ZP2384]"
test_value = 118

[[record]]
substance = "H-HGEGSFSDELATILEALAAADFIAWLIATKITD-NH2 [ZP2264]"
test_value = 109.5

[[record]]
substance = "H-HGEGSFSDELFTILEFLAASDFISWLISTKITDKKKKKK-NH2 [ZP2396]"
test_value = 102

[[record]]
substance = "H-HGEGSFSDELLTILELLAASDFISWLISTKITDKKKKKK-NH2 [ZP2394]"
test_value = 96

[[record]]
substance = "H-HGEGSFSDELATILEALAASDFISWLISTKITDKKKKKK-NH2 [ZP2381]"
test_value = 104

[[record]]
substance = "H-HGEGSFSDELKTILEKLAAKDFIKWLIKTKITDKKKKKK-NH2 [ZP2395]"
test_value = 97

[[record]]
substance = "H-HGEGSFSDELATILEALAAADFIAWLISTKITD-NH2 [ZP2397]"
test_value = 101

[[record]]
substance = "H-HGEGSFSDELATILESLAAADFISWLIATKITD-NH2 [ZP2272]"
test_value = 104.7

[[record]]
substance = "H-HGEGSFSDELLTILELLAASDFISWLISTKITD-NH2 [ZP2400]"
test_value = 106

[[record]]
substance = "H-HGEGSFSDELATI LEALAASDFIAWLIATKITDKKKKKK-NH2 [ZP2423]"
test_value = 109

[[record]]
substance = "H-HGEGSFSDELLTILELLAAADFIAWLIATKITDKKKKKK-NH2 [ZP2412]"
test_value = 99

[[record]]
substance = "H-HGEGSFSDELATILEALAASDFIAWLIATKITD-NH2 [ZP2417]"
test_value = 106


----------
- System: male C57BL mice
- Assay Name: In vivo stimulation of intestinal growth, 200 nmol/kg (Example 11)
- Condition Set: 200 nmol/kg s.c. once daily for 3 days
Property Name: Colon-BW, compared to 1559 in %

[[record]]
substance = "H-HGEGSFSDELFTILEFLAASDFISWLISTKITD-NH2 [ZP2401]"
subject_of_test = "male C57BL mice"
property_name = "Colon-BW, compared to 1559 in %"
test_value = "88%"

[[record]]
substance = "H-HGEGSFSDELATILEALAAADFIAWLIATKITDKKKKKK-NH2 [ZP2402]"
subject_of_test = "male C57BL mice"
property_name = "Colon-BW, compared to 1559 in %"
test_value = "113%"

[[record]]
substance = "H-HGEGSFSDELSTILEALAAADFIAWLIATKITDKKKKKK-NH2 [ZP2404]"
subject_of_test = "male C57BL mice"
property_name = "Colon-BW, compared to 1559 in %"
test_value = "115%"

[[record]]
substance = "H-HGEGSFSDELSTILESLAASDFISWLISTKITDKKKKKK-NH2 [ZP2380]"
subject_of_test = "male C57BL mice"
property_name = "Colon-BW, compared to 1559 in %"
test_value = "102%"

[[record]]
substance = "H-HGEGSFSDELATILEALAAADFIAWLISTKITDKKKKKK-NH2 [ZP2384]"
subject_of_test = "male C57BL mice"
property_name = "Colon-BW, compared to 1559 in %"
test_value = "118%"

[[record]]
substance = "H-HGEGSFSDELSTILEALAAADFIAWLIATKITD-NH2 [ZP2420]"
subject_of_test = "male C57BL mice"
property_name = "Colon-BW, compared to 1559 in %"
test_value = "101%"

[[record]]
substance = "H-HGEGSFSDELATILESLAAADFISWLIATKITDKKKKKK-NH2 [ZP2413]"
subject_of_test = "male C57BL mice"
property_name = "Colon-BW, compared to 1559 in %"
test_value = "117%"

[[record]]
substance = "H-HGEGSFSDELETILEELAAEDFIEWLIETKITDKKKKKK-NH2 [ZP2378]"
subject_of_test = "male C57BL mice"
property_name = "Colon-BW, compared to 1559 in %"
test_value = "97%"

[[record]]
substance = "H-HGEGSFSDELKTILESLAAADFIEWLIQTKITDKKKKKK-NH2 [ZP2379]"
subject_of_test = "male C57BL mice"
property_name = "Colon-BW, compared to 1559 in %"
test_value = "97%"

[[record]]
substance = "H-HGEGSFSDELKTILEKLAAKDFIKWLIKTKITDKKKKKK-NH2 [ZP2395]"
subject_of_test = "male C57BL mice"
property_name = "Colon-BW, compared to 1559 in %"
test_value = "97%"

[[record]]
substance = "H-HGEGSFSDELATILEALAAADFISWLIATKITDKKKKKK-NH2 [ZP2411]"
subject_of_test = "male C57BL mice"
property_name = "Colon-BW, compared to 1559 in %"
test_value = "111%"

[[record]]
substance = "H-HGEGSFSDELSTILEALAASDFISWLISTKITDKKKKKK-NH2 [ZP2385]"
subject_of_test = "male C57BL mice"
property_name = "Colon-BW, compared to 1559 in %"
test_value = "95%"

[[record]]
substance = "H-HGEGSFSDELATILESLAASDFISWLISTKITD-NH2 [ZP2399]"
subject_of_test = "male C57BL mice"
property_name = "Colon-BW, compared to 1559 in %"
test_value = "103%"

[[record]]
substance = "H-HGEGSFSDELLTILELLAALDFIAWLIATKITDKKKKKK-NH2 [ZP2416]"
subject_of_test = "male C57BL mice"
property_name = "Colon-BW, compared to 1559 in %"
test_value = "92%"

[[record]]
substance = "H-HGEGSFSDELSTILEALAASDFISWLISTKITD-NH2 [ZP2398]"
subject_of_test = "male C57BL mice"
property_name = "Colon-BW, compared to 1559 in %"
test_value = "97%"

